Tested on: Streptococcus uberis
Test: ≥ marks a high value that may be exact or a test limit, other limits are often not marked, values filed in µg/mL are converted to µM
observation-type: MIC

# count of solved cases: 3
sample-smiles | MIC
CC[C@H](C)[C@H](NC(=O)[C@H](CCCCN)NC(=O)[C@H](CO)NC(=O)[C@H](C)NC(=O)[C@@H](NC(=O)[C@H](CCCCN)NC(=O)[C@H](CCCCN)NC(=O)[C@@H](NC(=O)[C@@H](NC(=O)[C@H](CC(=O)O)NC(=O)[C@H](Cc1ccccc1)NC(=O)[C@H](CC(C)C)NC(=O)CN)C(C)C)[C@@H](C)CC)C(C)C)C(=O)N[C@@H](CCCCN)C(=O)NCC(=O)N[C@@H](CC(C)C)C(N)=O | ≥ 58.3 µM
CC[C@H](C)[C@H](NC(=O)[C@@H](NC(=O)[C@H](CO)NC(=O)[C@H](C)NC(=O)[C@@H](NC(=O)[C@H](CCCCN)NC(=O)[C@H](C)NC(=O)[C@@H](NC(=O)[C@@H](NC(=O)[C@H](CC(=O)O)NC(=O)[C@H](Cc1ccccc1)NC(=O)[C@H](CC(C)C)NC(=O)CN)C(C)C)[C@@H](C)CC)C(C)C)C(C)C)C(=O)NCC(=O)NCC(=O)N[C@@H](CC(C)C)C(N)=O | ≥ 64.1 µM
CC[C@H](C)[C@H](NC(=O)[C@@H](NC(=O)[C@H](C)NC(=O)[C@H](Cc1ccccc1)NC(=O)[C@H](CC(C)C)NC(=O)CN)C(C)C)C(=O)N[C@@H](CCCCN)C(=O)N[C@@H](CCCCN)C(=O)N[C@H](C(=O)N[C@@H](C)C(=O)N[C@@H](CCCCN)C(=O)N[C@H](C(=O)N[C@H](C(=O)N[C@@H](CCCCN)C(=O)N[C@@H](CCCCN)C(=O)N[C@@H](CC(C)C)C(N)=O)[C@@H](C)CC)C(C)C)C(C)C | 28.5 µM

Task item: // MIC lookup, key: CC[C@H](C)[C@H](NC(=O)[C@@H](NC(=O)[C@H](CO)NC(=O)[C@H](C)NC(=O)[C@@H](NC(=O)[C@H](CCCCN)NC(=O)[C@H](CCCCN)NC(=O)[C@@H](NC(=O)[C@@H](NC(=O)[C@H](CC(=O)O)NC(=O)[C@H](C)NC(=O)[C@H](CC(C)C)NC(=O)CN)C(C)C)[C@@H](C)CC)C(C)C)C(C)C)C(=O)NCC(=O)NCC(=O)N[C@@H](CC(C)C)C(N)=O
Reply: ≥ 64.9 µM
